Target: T1, cynomolgus CD47, on CHOK1-cCD47 stable cell line (cynomolgus)
T1 construct: whole, on cells; check before use; also called CHOK1/cynoCD47; monkey-derived CD47
Assay: FACS CHOK1-cCD47; Ab 1.6 nM
Some binders, each annotated with its measured mean fluorescence intensity.
Please respond with just the number, no unit label.

binder	measured_value
25E3B5 (antibody, V domains shown, Murine hybridoma antibody purified on protein G) VH: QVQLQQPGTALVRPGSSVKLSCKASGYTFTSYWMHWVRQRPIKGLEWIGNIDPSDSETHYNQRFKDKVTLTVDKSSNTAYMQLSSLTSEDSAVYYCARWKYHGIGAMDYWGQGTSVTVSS VL: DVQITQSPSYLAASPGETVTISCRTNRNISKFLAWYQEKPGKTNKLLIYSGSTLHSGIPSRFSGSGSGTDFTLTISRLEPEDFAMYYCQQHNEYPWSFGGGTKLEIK	7400
51E2F11 (antibody, V domains shown, Murine hybridoma antibody purified on protein G) VH: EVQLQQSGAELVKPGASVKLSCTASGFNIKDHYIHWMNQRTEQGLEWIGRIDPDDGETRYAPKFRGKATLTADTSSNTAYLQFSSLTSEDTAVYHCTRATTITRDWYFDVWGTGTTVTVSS VL: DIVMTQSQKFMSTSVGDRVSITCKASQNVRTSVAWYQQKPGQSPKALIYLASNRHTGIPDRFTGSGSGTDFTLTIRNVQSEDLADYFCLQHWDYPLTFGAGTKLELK	7190

# context switch: different binder, same mean fluorescence intensity
(Q) Returns the measured mean fluorescence intensity for the input binder. Input: 20H4G5 (antibody, V domains shown, Murine hybridoma antibody purified on protein G) VH: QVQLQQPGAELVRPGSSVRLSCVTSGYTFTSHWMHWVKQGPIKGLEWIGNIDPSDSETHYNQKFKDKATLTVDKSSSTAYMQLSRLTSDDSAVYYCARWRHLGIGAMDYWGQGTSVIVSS VL: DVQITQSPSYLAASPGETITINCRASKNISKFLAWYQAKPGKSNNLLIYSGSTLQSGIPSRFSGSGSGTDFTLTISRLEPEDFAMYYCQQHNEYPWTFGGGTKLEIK
(A) 9450

All figures here come from patent US20220017615A1.
